experimental_details: Primary phase half life in Sprague-Dawley rat at 10 mg/kg, po administered via gavage
Assay type: ADME, organism-based
condition_context: in vivo, read-out: alphat1/2 (converted)
Measured half-life accompanies every entry in the list below.
observation_type: half-life (h)

[[record]]
structure_smiles = "O=C(Nc1ccccc1C(F)(F)F)N1CCN(c2ccnc(Cl)n2)CC1"
data_value = 0.016

[[record]]
structure_smiles = "COc1ccc(NC(=O)N2CCc3c([nH]c4ccccc34)C2)cc1"
data_value = 2.43


###

experimental_target: Transient receptor potential cation channel subfamily V member 1 (Homo sapiens)
experimental_details: Antagonist activity at human TRPV1 assessed as inhibition of capsaicin-induced channel activation
observation_type: IC50

[[record]]
structure_smiles = "Cc1ccc(NC(=O)N2CCc3c([nH]c4ccccc34)C2)cc1Cl"
data_value = "297 nM"

[[record]]
structure_smiles = "O=C(Nc1ccc(Cl)cc1)N1CCc2c([nH]c3ccccc23)C1"
data_value = "284 nM"

[[record]]
structure_smiles = "O=C(Nc1ccc(F)cc1)N1CCN(c2ccnc(Cl)n2)CC1"
data_value = "1140 nM"

[[record]]
structure_smiles = "COc1ccccc1NC(=O)N1CCN(c2ccnc(Cl)n2)CC1"
data_value = "9420 nM"


###

experimental_target: Transient receptor potential cation channel subfamily V member 1 (Homo sapiens, UniProt Q8NER1)
Sequence (Q8NER1 whole entry): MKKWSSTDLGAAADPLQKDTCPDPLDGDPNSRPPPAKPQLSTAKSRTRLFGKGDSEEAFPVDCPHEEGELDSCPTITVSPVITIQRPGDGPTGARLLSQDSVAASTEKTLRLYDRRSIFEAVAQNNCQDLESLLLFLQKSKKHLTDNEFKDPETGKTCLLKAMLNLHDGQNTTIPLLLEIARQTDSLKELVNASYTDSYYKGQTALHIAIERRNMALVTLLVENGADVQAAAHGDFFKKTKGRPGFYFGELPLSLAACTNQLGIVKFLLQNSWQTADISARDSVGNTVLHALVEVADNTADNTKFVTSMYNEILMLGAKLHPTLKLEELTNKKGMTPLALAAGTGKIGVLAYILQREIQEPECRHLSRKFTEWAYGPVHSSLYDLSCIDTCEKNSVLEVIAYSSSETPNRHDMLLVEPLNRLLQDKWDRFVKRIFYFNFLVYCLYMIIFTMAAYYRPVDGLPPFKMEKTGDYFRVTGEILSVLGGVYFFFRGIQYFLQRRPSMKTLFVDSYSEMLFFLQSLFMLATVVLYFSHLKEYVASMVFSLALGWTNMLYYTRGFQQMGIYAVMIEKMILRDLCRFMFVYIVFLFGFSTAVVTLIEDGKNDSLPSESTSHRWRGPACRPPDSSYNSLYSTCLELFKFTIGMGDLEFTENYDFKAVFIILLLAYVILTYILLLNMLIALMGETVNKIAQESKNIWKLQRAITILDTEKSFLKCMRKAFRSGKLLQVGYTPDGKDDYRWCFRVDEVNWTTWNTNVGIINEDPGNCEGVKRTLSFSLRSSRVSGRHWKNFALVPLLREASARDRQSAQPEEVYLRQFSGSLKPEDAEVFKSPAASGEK
experimental_details: Antagonist activity at human TRPV1 assessed as inhibition of capsaicin-induced channel activation at 10 uM relative to control
condition_context: filed as antagonist
observation_type: inhibition

[[record]]
structure_smiles = "COc1cc([N+](=O)[O-])ccc1NC(=O)N1CCN(c2ccnc(Cl)n2)CC1"
data_value = "42%"

[[record]]
structure_smiles = "O=C(Nc1c(Cl)cc(Cl)cc1Cl)N1CCN(c2ccnc(Cl)n2)CC1"
data_value = "68%"

[[record]]
structure_smiles = "O=C(Nc1ccc(Cl)c(Cl)c1)N1CCN(c2ccnc(Cl)n2)CC1"
data_value = "54%"

[[record]]
structure_smiles = "O=C(Nc1ccc(Cl)cc1[N+](=O)[O-])N1CCN(c2ccnc(Cl)n2)CC1"
data_value = "43%"

[[record]]
structure_smiles = "COc1ccc(NC(=O)N2CCN(c3ccnc(Cl)n3)CC2)cc1"
data_value = "41%"

[[record]]
structure_smiles = "Cc1ccc(NC(=O)N2CCN(c3ccnc(Cl)n3)CC2)cc1Cl"
data_value = "45%"


###

Measured Tmax accompanies every entry in the list below.
experimental_details: Tmax in Sprague-Dawley rat at 10 mg/kg, po administered via gavage
Format: ADME, organism-based
condition_context: in vivo
observation_type: Tmax (h)

[[record]]
structure_smiles = "O=C(Nc1ccccc1C(F)(F)F)N1CCN(c2ccnc(Cl)n2)CC1"
data_value = 0.106

[[record]]
structure_smiles = "COc1ccc(NC(=O)N2CCc3c([nH]c4ccccc34)C2)cc1"
data_value = 3.93


###

Measured inhibition accompanies every entry in the list below.
experimental_target: UniProtKB Q8NER1
experimental_details: Antagonist activity at human TRPV1 assessed as inhibition of capsaicin-induced channel activation at 10 uM relative to control
observation_type: inhibition (%)

[[record]]
structure_smiles = "CC(C)(C)c1ccc(NC(=O)N2CCN(c3ccnc(Cl)n3)CC2)cc1"
measurement_unit = "%"
data_value = 29

[[record]]
structure_smiles = "O=C(Nc1cccc2cnccc12)N1CCN(c2ccnc(Cl)n2)CC1"
measurement_unit = "%"
data_value = 22

[[record]]
structure_smiles = "Cc1cc(C)c(NC(=O)N2CCN(c3ccnc(Cl)n3)CC2)c(C)c1"
measurement_unit = "%"
data_value = 35

[[record]]
structure_smiles = "COc1ccc(NC(=O)N2CCN(c3ccnc(Cl)n3)CC2)cc1OC"
measurement_unit = "%"
data_value = 37


Value source: ChEMBL document CHEMBL4680242
